# EXPERIMENTAL TARGET: BRAF V600E (Homo sapiens, UniProt P15056, V600E)
# Construct: endogenous C-terminal HiBiT fusion tag on BRAF V600E allele; endogenous in cells; host or cells: A375 clone 1F10 (CRISPR-Cas9 knock-in of the HiBiT tag; parental A375 from ATCC)
# Sequence (P15056 whole entry V600E, the tested form may be a part): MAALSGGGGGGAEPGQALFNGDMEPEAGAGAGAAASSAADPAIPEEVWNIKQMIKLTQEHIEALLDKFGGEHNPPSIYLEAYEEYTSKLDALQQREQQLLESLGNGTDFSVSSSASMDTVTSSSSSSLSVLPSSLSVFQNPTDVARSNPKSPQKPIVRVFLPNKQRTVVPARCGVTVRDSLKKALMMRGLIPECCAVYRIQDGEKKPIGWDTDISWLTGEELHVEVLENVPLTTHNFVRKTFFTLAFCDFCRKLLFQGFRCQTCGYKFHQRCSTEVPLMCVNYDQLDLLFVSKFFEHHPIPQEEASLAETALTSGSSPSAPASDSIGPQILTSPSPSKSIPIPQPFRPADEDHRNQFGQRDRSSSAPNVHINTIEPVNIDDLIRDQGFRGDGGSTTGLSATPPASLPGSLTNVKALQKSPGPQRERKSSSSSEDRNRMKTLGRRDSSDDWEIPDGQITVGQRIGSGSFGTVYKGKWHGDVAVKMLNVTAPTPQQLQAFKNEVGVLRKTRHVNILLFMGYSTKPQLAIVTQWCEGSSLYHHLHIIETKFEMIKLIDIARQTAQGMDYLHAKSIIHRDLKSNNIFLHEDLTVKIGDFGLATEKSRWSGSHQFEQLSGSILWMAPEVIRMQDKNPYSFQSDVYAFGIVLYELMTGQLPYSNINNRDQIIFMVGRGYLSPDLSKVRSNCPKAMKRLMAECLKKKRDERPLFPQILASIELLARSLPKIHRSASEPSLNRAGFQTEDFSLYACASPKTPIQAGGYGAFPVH
# ASSAY SUMMARY: BRAF HiBiT degradation assay, C-terminal HiBiT-tagged BRAF V600E A375 cells (clone 1F10), Nano-Glo HiBiT Lytic assay
# Format: cell-based
# MEASUREMENT PARAMETERS: A375 (BRAF V600E); DC50 at 50%: fitted conc. at Y=50
OUTCOME MEASURE: DC50

COMPOUND | RESULT
CCCS(=O)(=O)Nc1cccc(-c2nc(C(C)(C)C)sc2-c2ccnc(Nc3ccc(C4CCN(C(=O)C[C@H]5CCN(c6ccc(C7CCC(=O)NC7=O)cc6)C5)CC4)cc3)n2)c1F (mixture of isomers) | 10 to 50 nM
CCCS(=O)(=O)Nc1cccc(-c2nc(C(C)(C)C)sc2-c2ccnc(Nc3cnn(C4CCN(C(=O)[C@H]5CC[C@H](Oc6ccc(C7CCC(=O)NC7=O)cn6)CC5)CC4)c3)n2)c1F (mixture of isomers) | < 10 nM
CCCS(=O)(=O)Nc1cccc(-c2nc(C(C)(C)C)sc2-c2ccnc(Nc3cccc(C4CCN(CC[C@H]5CCN(c6ccc(C7CCC(=O)NC7=O)cn6)C5)CC4)c3)n2)c1F (mixture of isomers) | 10 to 50 nM
CCCS(=O)(=O)Nc1cccc(-c2nc(C(C)(C)C)sc2-c2ccnc(Nc3ccc(C4CCN(CC5CCN(c6ccc(C7CCC(=O)NC7=O)cn6)CC5)CC4)cc3)n2)c1F (racemic) | < 10 nM
CCCS(=O)(=O)Nc1cccc(-c2nc(-c3ccc(N4CCN(C(=O)C5CCN(c6ccc(C7CCC(=O)NC7=O)cn6)CC5)CC4)cc3)sc2-c2ccnc(N)n2)c1F (racemic) | < 10 nM

---

Attribute: Dmax
# EXPERIMENTAL TARGET: BRAF V600E (Homo sapiens, UniProt P15056, V600E)
# Construct: endogenous C-terminal HiBiT fusion tag on BRAF V600E allele; endogenous in cells; host or cells: A375 clone 1F10 (CRISPR-Cas9 knock-in of the HiBiT tag; parental A375 from ATCC)
# ASSAY SUMMARY: BRAF HiBiT degradation assay, C-terminal HiBiT-tagged BRAF V600E A375 cells (clone 1F10), Nano-Glo HiBiT Lytic assay
# Assay type: cell-based
# MEASUREMENT PARAMETERS: A-375; A375 (BRAF V600E); percentage protein degraded at maximal compound effect relative to DMSO
OUTCOME MEASURE: Dmax

COMPOUND | RESULT
CCCS(=O)(=O)Nc1cccc(-c2nc(C(C)(C)C)sc2-c2ccnc(Nc3cccc(C4CCN(CC5(C)CCN(c6ccc(C7CCC(=O)NC7=O)cn6)CC5)CC4)c3)n2)c1F (racemic) [Compound 73] | 30 to 70%
CCCS(=O)(=O)Nc1cccc(-c2nc(C3CCC4(CC3)CN(C(=O)CN3CCN(c5ccc6c(c5)C(=O)N(C5CCC(=O)NC5=O)C6=O)CC3)C4)sc2-c2ccnc(N)n2)c1F (racemic) [Compound 230] | 30 to 70%
CCCS(=O)(=O)Nc1cccc(-c2nc(C3CCN(C(=O)C4CCN(C(=O)C5CCN(c6ccc(C7CCC(=O)NC7=O)cn6)CC5)CC4)CC3)sc2-c2ccncc2)c1F (racemic) [Compound 210] | > 70%
CCCS(=O)(=O)Nc1cccc(-c2nc(C(C)(C)C)sc2-c2ccnc(Nc3ccc(C4CCN(CC[C@H]5CCN(c6ccc(C7CCC(=O)NC7=O)cn6)C5)CC4)cc3)n2)c1F (mixture of isomers) [Compound 173] | > 70%
CCCS(=O)(=O)Nc1cccc(-c2nc(C(C)(C)C)sc2-c2ccnc(Nc3ccc(N4CCN(C(=O)CC5CCN(c6ccc(C7CCC(=O)NC7=O)cn6)CC5)CC4)c(F)c3)n2)c1F (racemic) [Compound 48] | > 70%
CCCS(=O)(=O)Nc1cccc(-c2nc(C(C)(C)C)sc2-c2ccnc(Nc3cccc(OC4CCN(C(=O)CN5CCC(c6ccc(NC7CCC(=O)NC7=O)cc6)CC5)CC4)c3)n2)c1F (racemic) [Compound 96] | > 70%
CCCS(=O)(=O)Nc1cccc(-c2nc(C(C)(C)C)sc2-c2ccnc(Nc3ccc(C4CCN(C(=O)CCCC(=O)N[C@H](C(=O)N5C[C@H](O)C[C@H]5C(=O)N[C@@H](C)c5ccc(-c6scnc6C)cc5)C(C)(C)C)CC4)cc3)n2)c1F [Compound 86] | 30 to 70%
CCCS(=O)(=O)Nc1cccc(-c2nc(C(C)(C)C)sc2-c2ccnc(Nc3ccc4c(c3)CCN(CC3CCN(c5ccc6c(=O)n(C7CCC(=O)NC7=O)ccc6c5)CC3)C4)n2)c1F (racemic) [Compound 85] | 30 to 70%
CCCS(=O)(=O)Nc1cccc(-c2nc(C(C)(C)C)sc2-c2ccnc(NC3CC4(CCN(CC5CCN(c6ccc([C@H]7CCC(=O)NC7=O)cc6)CC5)CC4)C3)n2)c1F [Compound 133] | 30 to 70%

---

# EXPERIMENTAL TARGET: BRAF G469A (Homo sapiens, UniProt P15056, G469A)
# Construct: Horizon Discovery (HCT-116 BRAF−/− cells); host or cells: HCT-116 BRAF−/− cells, clone 34, lentiviral transduction
# Sequence (P15056 whole entry G469A): as the sequence (P15056 whole entry V600E, the tested form may be a part) above, with G469A, E600V counted along it
# ASSAY SUMMARY: BRAF HiBiT degradation assay, C-terminal HiBiT-tagged BRAF G469A overexpressed in HCT-116 BRAF−/− cells (clone 34), Nano-Glo HiBiT Lytic assay
# Type: cell-based
# MEASUREMENT PARAMETERS: HCT-116; Class 2; BRAF G469A; percentage protein degraded at maximal compound effect relative to DMSO
Attribute: Dmax

COMPOUND | Dmax
CCCS(=O)(=O)Nc1cccc(-c2cn(-c3ccc(N4CCN(CC5CCN(c6ccc(C7CCC(=O)NC7=O)cn6)CC5)CC4)nc3)nc2-c2ccncc2)c1F (racemic) | 30 to 70%
CCCS(=O)(=O)Nc1cccc(-c2nc(-c3ccc(N4CCN(CC5CCN(c6ccc([C@H]7CCC(=O)NC7=O)cc6)CC5)CC4)cc3)sc2-c2ccnc(N)n2)c1F | 30 to 70%
CCCS(=O)(=O)Nc1cccc(-c2nc(C(C)(C)C)sc2-c2ccnc(Nc3cccc(OC4CCN(C(=O)[C@H]5CC[C@H](Oc6ccc(C7CCC(=O)NC7=O)cn6)CC5)CC4)c3)n2)c1F (mixture of isomers) | < 30%
CCCS(=O)(=O)Nc1cccc(-c2nc(C(C)(C)C)sc2-c2ccnc(Nc3ccc(C4CCN(CC5CCN(c6ccc(C7CCC(=O)NC7=O)cn6)CC5)CC4)cc3)n2)c1F (racemic) | < 30%
CCCS(=O)(=O)Nc1cccc(-c2nc(C)sc2-c2ccnc(Nc3ccc(N4CCN(CC5CCN(c6ccc(C7CCC(=O)NC7=O)cn6)CC5)CC4)cn3)n2)c1F (racemic) | 30 to 70%
CCCS(=O)(=O)Nc1cccc(-c2cn(C3CCN(C(=O)C4CCN(CC5CCN(c6ccc(C7CCC(=O)NC7=O)cn6)CC5)CC4)CC3)nc2-c2ccncc2)c1F (racemic) | < 30%
CCCS(=O)(=O)Nc1cccc(-c2nc(C3CCN(C(=O)C4CCN(CC5CCN(c6ccc(C7CCC(=O)NC7=O)cn6)CC5)CC4)CC3)sc2-c2ccnc(NC)n2)c1F (racemic) | < 30%
CCCS(=O)(=O)Nc1cccc(-c2nc(C(C)(C)C)sc2-c2ccnc(Nc3cccc(C4CCN(CC5CCN(c6ccc7c(=O)n(C8CCC(=O)NC8=O)ccc7c6)CC5)CC4)c3)n2)c1F (racemic) | < 30%
CCN(C)S(=O)(=O)Nc1cccc(-c2nc(C(C)(C)C)sc2-c2ccnc(Nc3ccc(N4CCN(C(=O)C5CCN(c6ccc(C7CCC(=O)NC7=O)cn6)CC5)CC4)cn3)n2)c1F (racemic) | 30 to 70%
CCCS(=O)(=O)Nc1cccc(-c2cn(-c3ccc(C4CCN(CC5CCN(c6ccc(C7CCC(=O)NC7=O)cc6)CC5)CC4)cc3)nc2-c2ccncc2)c1F (racemic) | < 30%

---

Attribute: DC50
# EXPERIMENTAL TARGET: BRAF G466V (Homo sapiens, UniProt P15056, G466V)
# Construct: Horizon Discovery (HCT-116 BRAF−/− cells); host or cells: HCT-116 BRAF−/− cells, clone 8, lentiviral transduction
# Sequence (P15056 whole entry G466V): as the sequence (P15056 whole entry V600E, the tested form may be a part) above, with G466V, E600V counted along it
# ASSAY SUMMARY: BRAF HiBiT degradation assay, C-terminal HiBiT-tagged BRAF G466V overexpressed in HCT-116 BRAF−/− cells (clone 8), Nano-Glo HiBiT Lytic assay
# Format: cell-based
# MEASUREMENT PARAMETERS: BRAF G466V; DC50 at 50%: fitted conc. at Y=50

MOLECULE | DC50
CCCS(=O)(=O)Nc1cccc(-c2cn(-c3ccc(C4CCN(CC5CCN(c6ccc(C7CCC(=O)NC7=O)cn6)CC5)CC4)cc3)nc2-c2ccncc2)c1F (racemic) | 10 to 50 nM
CCN(C)S(=O)(=O)Nc1cccc(-c2nc(C3CCN(C(=O)C4CCN(C(=O)C5CCN(c6ccc(C7CCC(=O)NC7=O)cn6)CC5)CC4)CC3)sc2-c2ccnc(NC(C)C)n2)c1F (racemic) | < 10 nM
CCCS(=O)(=O)Nc1cccc(-c2nc(C(C)(C)C)sc2-c2ccnc(N[C@H]3CC[C@@H](N4CCN(CC5CCN(c6ccc(C7CCC(=O)NC7=O)cn6)CC5)CC4)CC3)n2)c1F (mixture of isomers) | 10 to 50 nM
CCCS(=O)(=O)Nc1cccc(-c2nc(CCC3CCN(C(=O)C4CCN(C(=O)C5CCN(c6ccc(C7CCC(=O)NC7=O)cn6)CC5)CC4)CC3)sc2-c2ccnc(N)n2)c1F (racemic) | > 500 nM
